Tested on: Staphylococcus aureus ATCC 25923
Assay: Agar well diffusion, S. aureus
Format: cell-based
Conditions: Staphylococcus aureus, ATCC25923, 60 µL of 1 mg/mL per well; ZOI including the well (6 mm); ± SD, n = 3; ciprofloxacin disk 5 μg; read-out: Staphylococcus aureus ATCC 25923 ZOI
assay.metric: zone of inhibition at 1000 µg/mL (mm)

INSERT INTO results (compound, tested_target, observed) VALUES
  ('O=C1C(=O)N(Cc2cn(CCCOc3cc(=O)oc4ccccc34)nn2)c2ccc(Cl)cc21', 'Staphylococcus aureus ATCC 25923', 10.3),
  ('O=C(O)c1cn(C2CC2)c2cc(N3CCNCC3)c(F)cc2c1=O [Ciprofloxacine, ciprofloxacin, reference compound]', 'Staphylococcus aureus ATCC 25923', 27),
  ('O=C1C(=O)N(Cc2cn(CCCCOc3cc(=O)oc4ccccc34)nn2)c2ccc(Cl)cc21', 'Staphylococcus aureus ATCC 25923', 10.7);

====

pIC50: −log10 of the molar value.
Target or system AChE from Electrophorus electricus (eeAChE) (Electrophorus electricus); recorded quantity pIC50.
assay.metric: pIC50

INSERT INTO results (smiles_record, tested_target, observed) VALUES
  ('O=C1C(=O)N(Cc2cn(CCCCOc3cc(=O)oc4ccccc34)nn2)c2ccccc21', 'AChE from Electrophorus electricus (eeAChE) (Electrophorus electricus)', 4.82),
  ('O=C1C(=O)N(Cc2cn(CCCCOc3cc(=O)oc4ccccc34)nn2)c2ccc(F)cc21', 'AChE from Electrophorus electricus (eeAChE) (Electrophorus electricus)', 4.77),
  ('O=C1C(=O)N(Cc2cn(CCCOc3cc(=O)oc4ccccc34)nn2)c2ccccc21', 'AChE from Electrophorus electricus (eeAChE) (Electrophorus electricus)', 4.74);

====

Biological target: AChE from Electrophorus electricus (eeAChE) (Electrophorus electricus)
Construct: purchased Sigma-Aldrich (St. Louis, MO, USA)
Test: biochemical
Details: read-out: AChE % of Inhibition (Conc. 20 μM)
assay.metric: inhibition at 20 µM (%)

INSERT INTO results (smiles_record, tested_target, assay_metric, observed) VALUES
  ('Cc1ccc2c(c1)C(=O)C(=O)N2Cc1cn(CCCCOc2cc(=O)oc3ccccc23)nn1', 'AChE from Electrophorus electricus (eeAChE) (Electrophorus electricus)', 'inhibition at 20 µM', 12.1),
  ('O=C1C(=O)N(Cc2cn(CCCOc3cc(=O)oc4ccccc34)nn2)c2ccc(I)cc21', 'AChE from Electrophorus electricus (eeAChE) (Electrophorus electricus)', 'inhibition at 20 µM', 27.6),
  ('O=C1C(=O)N(Cc2cn(CCCCOc3cc(=O)oc4ccccc34)nn2)c2ccccc21', 'AChE from Electrophorus electricus (eeAChE) (Electrophorus electricus)', 'inhibition at 20 µM', 67.1),
  ('O=C1C(=O)N(Cc2cn(CCCCOc3cc(=O)oc4ccccc34)nn2)c2ccc(F)cc21', 'AChE from Electrophorus electricus (eeAChE) (Electrophorus electricus)', 'inhibition at 20 µM', 61);

====

Target: AChE from Electrophorus electricus (eeAChE) (Electrophorus electricus, UniProt O42275)
Construct: purchased Sigma-Aldrich (St. Louis, MO, USA)
Sequence (O42275 24-633): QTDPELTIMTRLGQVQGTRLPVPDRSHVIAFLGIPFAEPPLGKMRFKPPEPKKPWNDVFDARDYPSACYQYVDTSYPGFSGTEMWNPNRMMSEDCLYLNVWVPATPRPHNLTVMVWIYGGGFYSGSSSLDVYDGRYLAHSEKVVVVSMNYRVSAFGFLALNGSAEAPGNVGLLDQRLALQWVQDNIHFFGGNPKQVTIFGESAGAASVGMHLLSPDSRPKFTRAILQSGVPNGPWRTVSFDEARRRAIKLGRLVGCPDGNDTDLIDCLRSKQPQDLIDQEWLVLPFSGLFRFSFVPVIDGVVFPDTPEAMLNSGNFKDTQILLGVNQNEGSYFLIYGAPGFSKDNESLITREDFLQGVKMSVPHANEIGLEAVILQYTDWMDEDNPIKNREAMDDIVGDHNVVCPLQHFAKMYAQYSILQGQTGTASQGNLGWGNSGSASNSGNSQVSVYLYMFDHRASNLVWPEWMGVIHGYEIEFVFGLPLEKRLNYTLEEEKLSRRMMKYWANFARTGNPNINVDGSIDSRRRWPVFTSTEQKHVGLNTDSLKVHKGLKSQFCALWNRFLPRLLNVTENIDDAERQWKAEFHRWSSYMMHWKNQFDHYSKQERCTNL
Assay: biochemical
Details: read-out: AChE % of Inhibition (Conc. 20 μM)
Mark label 0 for inhibition at 20 µM values under 10%, and label 1 for everything at or above.

INSERT INTO results (smiles_record, category_label) VALUES
  ('Cc1ccc2c(c1)C(=O)C(=O)N2Cc1cn(CCOc2cc(=O)oc3ccccc23)nn1', 'label 1'),
  ('O=C1C(=O)N(Cc2cn(CCCOc3cc(=O)oc4ccccc34)nn2)c2ccc([N+](=O)[O-])cc21', 'label 1'),
  ('Cc1ccc2c(c1)C(=O)C(=O)N2Cc1cn(CCCOc2cc(=O)oc3ccccc23)nn1', 'label 1'),
  ('O=C1C(=O)N(Cc2cn(CCCOc3cc(=O)oc4ccccc34)nn2)c2ccc(Cl)cc21', 'label 1'),
  ('O=C1C(=O)N(Cc2cn(CCOc3cc(=O)oc4ccccc34)nn2)c2ccc([N+](=O)[O-])cc21', 'label 0'),
  ('O=C1C(=O)N(Cc2cn(CCOc3cc(=O)oc4ccccc34)nn2)c2ccc(Cl)cc21', 'label 0'),
  ('O=C1C(=O)N(Cc2cn(CCCCOc3cc(=O)oc4ccccc34)nn2)c2ccc(I)cc21', 'label 1'),
  ('O=C1C(=O)N(Cc2cn(CCCOc3cc(=O)oc4ccccc34)nn2)c2ccccc21', 'label 1'),
  ('O=C1C(=O)N(Cc2cn(CCOc3cc(=O)oc4ccccc34)nn2)c2ccc(F)cc21', 'label 1'),
  ('O=C1C(=O)N(Cc2cn(CCCCOc3cc(=O)oc4ccccc34)nn2)c2ccc(Cl)cc21', 'label 1'),
  ('O=C1C(=O)N(Cc2cn(CCCOc3cc(=O)oc4ccccc34)nn2)c2ccc(Br)cc21', 'label 1'),
  ('O=C1C(=O)N(Cc2cn(CCOc3cc(=O)oc4ccccc34)nn2)c2ccc(I)cc21', 'label 0'),
  ('O=C1C(=O)N(Cc2cn(CCCCOc3cc(=O)oc4ccccc34)nn2)c2ccc([N+](=O)[O-])cc21', 'label 1'),
  ('O=C1C(=O)N(Cc2cn(CCOc3cc(=O)oc4ccccc34)nn2)c2ccccc21', 'label 1'),
  ('O=C1C(=O)N(Cc2cn(CCOc3cc(=O)oc4ccccc34)nn2)c2ccc(Br)cc21', 'label 0'),
  ('O=C1C(=O)N(Cc2cn(CCCOc3cc(=O)oc4ccccc34)nn2)c2ccc(F)cc21', 'label 1');

====

Examples of compounds with documented pIC50 follow.
Target: BChE from equine serum (eqBuChE) (Equus caballus, UniProt P81908)
Construct: BChE from equine serum (BChE, EC 3.1.1.8)
Sequence (P81908 whole entry): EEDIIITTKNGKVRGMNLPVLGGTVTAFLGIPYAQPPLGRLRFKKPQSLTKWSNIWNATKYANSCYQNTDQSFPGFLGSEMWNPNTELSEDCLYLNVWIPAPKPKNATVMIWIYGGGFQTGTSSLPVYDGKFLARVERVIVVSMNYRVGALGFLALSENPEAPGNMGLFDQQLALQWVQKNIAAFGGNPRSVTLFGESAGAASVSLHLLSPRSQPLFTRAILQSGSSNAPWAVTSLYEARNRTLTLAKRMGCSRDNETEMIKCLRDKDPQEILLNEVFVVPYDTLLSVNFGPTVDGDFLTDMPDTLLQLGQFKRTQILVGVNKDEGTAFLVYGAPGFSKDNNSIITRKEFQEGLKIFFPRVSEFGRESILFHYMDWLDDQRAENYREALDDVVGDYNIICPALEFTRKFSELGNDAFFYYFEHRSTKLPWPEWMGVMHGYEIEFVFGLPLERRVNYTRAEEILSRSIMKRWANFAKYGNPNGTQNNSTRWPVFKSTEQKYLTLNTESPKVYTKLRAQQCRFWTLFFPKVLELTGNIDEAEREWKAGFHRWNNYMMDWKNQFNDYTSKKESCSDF
Experiment: biochemical
Conditions: average ± standard error (n = 3)
pIC50: −log10 of the molar value.
assay.metric: pIC50

INSERT INTO assay_data (smiles_record, observed) VALUES
  ('O=C1C(=O)N(Cc2cn(CCOc3cc(=O)oc4ccccc34)nn2)c2ccc(Cl)cc21', 4.98),
  ('O=C1C(=O)N(Cc2cn(CCOc3cc(=O)oc4ccccc34)nn2)c2ccccc21', 5.22),
  ('O=C1C(=O)N(Cc2cn(CCCOc3cc(=O)oc4ccccc34)nn2)c2ccccc21', 5.07),
  ('O=C1C(=O)N(Cc2cn(CCCOc3cc(=O)oc4ccccc34)nn2)c2ccc(Br)cc21', 4.88),
  ('O=C1C(=O)N(Cc2cn(CCCCOc3cc(=O)oc4ccccc34)nn2)c2ccc(F)cc21', 5.26),
  ('O=C1C(=O)N(Cc2cn(CCCOc3cc(=O)oc4ccccc34)nn2)c2ccc(I)cc21', 4.83),
  ('O=C1C(=O)N(Cc2cn(CCOc3cc(=O)oc4ccccc34)nn2)c2ccc(F)cc21', 5.04),
  ('O=C1C(=O)N(Cc2cn(CCCCOc3cc(=O)oc4ccccc34)nn2)c2ccccc21', 5.76),
  ('O=C1C(=O)N(Cc2cn(CCCOc3cc(=O)oc4ccccc34)nn2)c2ccc(Cl)cc21', 4.95),
  ('O=C1C(=O)N(Cc2cn(CCCOc3cc(=O)oc4ccccc34)nn2)c2ccc(F)cc21', 5.23);

====

Target: BChE from equine serum (eqBuChE) (Equus caballus)
Construct: BChE from equine serum (BChE, EC 3.1.1.8); purchased Sigma-Aldrich (St. Louis, MO, USA); host or cells: equine serum
Test: biochemical
Conditions: read-out: BChE % of Inhibition (Conc. 20 μM), 20 μM; average ± standard error (n = 3)
// thresholds for inhibition at 20 µM classes: low (below 60%), mid (60% to below 70%), high (70% or more)

INSERT INTO assay_data (molecule, category_label) VALUES
  ('Cc1ccc2c(c1)C(=O)C(=O)N2Cc1cn(CCCCOc2cc(=O)oc3ccccc23)nn1', 'low'),
  ('O=C1C(=O)N(Cc2cn(CCCOc3cc(=O)oc4ccccc34)nn2)c2ccc(F)cc21', 'high'),
  ('O=C1C(=O)N(Cc2cn(CCCCOc3cc(=O)oc4ccccc34)nn2)c2ccc(F)cc21', 'high'),
  ('O=C1C(=O)N(Cc2cn(CCOc3cc(=O)oc4ccccc34)nn2)c2ccc(F)cc21', 'mid'),
  ('O=C1C(=O)N(Cc2cn(CCCOc3cc(=O)oc4ccccc34)nn2)c2ccc([N+](=O)[O-])cc21', 'low'),
  ('O=C1C(=O)N(Cc2cn(CCCCOc3cc(=O)oc4ccccc34)nn2)c2ccc(Br)cc21', 'low'),
  ('O=C1C(=O)N(Cc2cn(CCCCOc3cc(=O)oc4ccccc34)nn2)c2ccc(Cl)cc21', 'low'),
  ('O=C1C(=O)N(Cc2cn(CCCCOc3cc(=O)oc4ccccc34)nn2)c2ccc([N+](=O)[O-])cc21', 'low'),
  ('O=C1C(=O)N(Cc2cn(CCOc3cc(=O)oc4ccccc34)nn2)c2ccc(Br)cc21', 'low'),
  ('O=C1C(=O)N(Cc2cn(CCOc3cc(=O)oc4ccccc34)nn2)c2ccc([N+](=O)[O-])cc21', 'low'),
  ('O=C1C(=O)N(Cc2cn(CCCCOc3cc(=O)oc4ccccc34)nn2)c2ccc(I)cc21', 'low'),
  ('O=C1C(=O)N(Cc2cn(CCCOc3cc(=O)oc4ccccc34)nn2)c2ccc(Br)cc21', 'mid'),
  ('COc1cc2c(cc1OC)C(=O)C(CC1CCN(Cc3ccccc3)CC1)C2 (centres unmarked) [Donepezil, donepezil, reference compound]', 'high'),
  ('O=C1C(=O)N(Cc2cn(CCOc3cc(=O)oc4ccccc34)nn2)c2ccccc21', 'high'),
  ('O=C1C(=O)N(Cc2cn(CCOc3cc(=O)oc4ccccc34)nn2)c2ccc(I)cc21', 'low'),
  ('O=C1C(=O)N(Cc2cn(CCOc3cc(=O)oc4ccccc34)nn2)c2ccc(Cl)cc21', 'mid'),
  ('O=C1C(=O)N(Cc2cn(CCCCOc3cc(=O)oc4ccccc34)nn2)c2ccccc21', 'high');

Every entry's value here was drawn from paper PMC12114297.
